Listed compounds paired with reported pEC50
- assay-method-text: Inhibition of deubiquitinase in HEK293T cells assessed as stabilization of K48-linked HMW-Ub protein by Western blot analysis
- Assay type: cell-based, Homo sapiens
pEC50: −log10 of the molar value.
measured-property: pEC50

>>> measured("NCc1ccc(OC(=O)Oc2cccc3ccccc23)cc1")
"> 4.30"
>>> measured("NCc1ccc(OC(=O)Oc2ccc3ccccc3c2)cc1")
"> 4.30"
>>> measured("NCc1ccc(OC(=O)Oc2ccc(Br)cc2)cc1")
"> 4.30"
>>> measured("NCc1ccc(OC(=O)Oc2ccc(Cl)cc2)cc1")
"> 4.30"

* * *

Listed compounds paired with reported pEC50
- assay-method-text: Inhibition of deubiquitinase in COS1 cells expressing N-terminal HA-tagged ubiquitin assessed as stabilization of HMW-Ub proteins by Western blot analysis
- Assay type: cell-based, Chlorocebus aethiops
pEC50: −log10 of the molar value.
measured-property: pEC50

>>> measured("NCc1ccc(OC(=O)Oc2ccccc2)cc1")
3.60
>>> measured("NCc1ccc(OC(=O)Oc2ccc(Cl)cc2)cc1")
4.30
>>> measured("NCc1ccc(OC(=O)Oc2ccc(Br)cc2)cc1")
4.40

* * *

- target-or-system: Trypsin (Homo sapiens, UniProt P07477+P07478+P35030)
- assay-method-text: Substrate activity at trypsin (unknown origin) by Michaelis-Menten plot analysis
- Format: ADME, protein assay
- reported-conditions: trypsin (isolated enzyme, unknown origin)
measured-property: Km

>>> measured("NCc1ccc(OC(=O)Oc2ccc3ccccc3c2)cc1")
"1 µM"

* * *

- target-or-system: Ubiquitin carboxyl-terminal hydrolase 7 (Homo sapiens) (UniProt Q93009)
- Sequence (Q93009 whole entry, looked up, the tested form may be a part): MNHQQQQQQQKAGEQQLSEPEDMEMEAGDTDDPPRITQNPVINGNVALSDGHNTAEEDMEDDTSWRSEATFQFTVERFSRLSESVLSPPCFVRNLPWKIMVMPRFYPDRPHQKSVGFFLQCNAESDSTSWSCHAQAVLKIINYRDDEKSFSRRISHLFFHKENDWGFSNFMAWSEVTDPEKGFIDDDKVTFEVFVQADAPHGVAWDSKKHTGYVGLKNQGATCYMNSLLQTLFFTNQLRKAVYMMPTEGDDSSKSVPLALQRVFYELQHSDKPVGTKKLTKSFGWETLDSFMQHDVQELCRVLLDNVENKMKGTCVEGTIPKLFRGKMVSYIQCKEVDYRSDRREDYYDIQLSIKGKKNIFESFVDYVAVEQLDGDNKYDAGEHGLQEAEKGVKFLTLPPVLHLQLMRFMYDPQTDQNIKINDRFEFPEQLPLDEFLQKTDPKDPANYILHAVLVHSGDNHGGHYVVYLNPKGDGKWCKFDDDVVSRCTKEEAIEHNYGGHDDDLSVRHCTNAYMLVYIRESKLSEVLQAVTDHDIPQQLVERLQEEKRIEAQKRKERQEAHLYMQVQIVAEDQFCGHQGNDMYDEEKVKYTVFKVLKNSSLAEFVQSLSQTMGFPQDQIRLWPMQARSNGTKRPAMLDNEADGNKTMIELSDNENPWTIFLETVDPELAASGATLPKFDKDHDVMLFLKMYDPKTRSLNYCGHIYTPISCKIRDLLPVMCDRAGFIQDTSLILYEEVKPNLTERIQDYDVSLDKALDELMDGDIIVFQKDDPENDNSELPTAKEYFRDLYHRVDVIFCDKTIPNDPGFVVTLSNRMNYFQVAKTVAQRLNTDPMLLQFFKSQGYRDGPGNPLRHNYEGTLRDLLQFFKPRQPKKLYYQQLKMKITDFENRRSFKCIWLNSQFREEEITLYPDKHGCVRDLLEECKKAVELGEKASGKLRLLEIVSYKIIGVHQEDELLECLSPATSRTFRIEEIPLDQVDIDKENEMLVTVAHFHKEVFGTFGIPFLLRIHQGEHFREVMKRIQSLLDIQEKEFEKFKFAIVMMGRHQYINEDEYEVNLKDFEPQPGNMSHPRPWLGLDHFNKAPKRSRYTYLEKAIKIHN
- assay-method-text: Inhibition of recombinant His6-tagged USP7 catalytic domain (unknown origin) assessed as association constant using Ub-AMC as substrate by fluorescence assay
measured-property: K

>>> measured("NCc1ccc(OC(=O)Oc2ccc(Cl)cc2)cc1")
"13 M⁻¹ s⁻¹"
>>> measured("NCc1ccc(OC(=O)Oc2ccc3ccccc3c2)cc1")
"9 M⁻¹ s⁻¹"
>>> measured("NCc1ccc(OC(=O)Oc2ccc(Br)cc2)cc1")
"8 M⁻¹ s⁻¹"
>>> measured("CC(C)(C)CNCc1ccc(OC(=O)Oc2ccc3ccccc3c2)cc1")
"21 M⁻¹ s⁻¹"
>>> measured("CCC[C@H](NC(=O)/C(C#N)=C/c1cccc(Br)n1)c1ccccc1")
"66 M⁻¹ s⁻¹"

* * *

- target-or-system: Ubiquitin carboxyl-terminal hydrolase 9X (Homo sapiens) (UniProt Q93008)
- Sequence (Q93008 whole entry, the tested form may be a part): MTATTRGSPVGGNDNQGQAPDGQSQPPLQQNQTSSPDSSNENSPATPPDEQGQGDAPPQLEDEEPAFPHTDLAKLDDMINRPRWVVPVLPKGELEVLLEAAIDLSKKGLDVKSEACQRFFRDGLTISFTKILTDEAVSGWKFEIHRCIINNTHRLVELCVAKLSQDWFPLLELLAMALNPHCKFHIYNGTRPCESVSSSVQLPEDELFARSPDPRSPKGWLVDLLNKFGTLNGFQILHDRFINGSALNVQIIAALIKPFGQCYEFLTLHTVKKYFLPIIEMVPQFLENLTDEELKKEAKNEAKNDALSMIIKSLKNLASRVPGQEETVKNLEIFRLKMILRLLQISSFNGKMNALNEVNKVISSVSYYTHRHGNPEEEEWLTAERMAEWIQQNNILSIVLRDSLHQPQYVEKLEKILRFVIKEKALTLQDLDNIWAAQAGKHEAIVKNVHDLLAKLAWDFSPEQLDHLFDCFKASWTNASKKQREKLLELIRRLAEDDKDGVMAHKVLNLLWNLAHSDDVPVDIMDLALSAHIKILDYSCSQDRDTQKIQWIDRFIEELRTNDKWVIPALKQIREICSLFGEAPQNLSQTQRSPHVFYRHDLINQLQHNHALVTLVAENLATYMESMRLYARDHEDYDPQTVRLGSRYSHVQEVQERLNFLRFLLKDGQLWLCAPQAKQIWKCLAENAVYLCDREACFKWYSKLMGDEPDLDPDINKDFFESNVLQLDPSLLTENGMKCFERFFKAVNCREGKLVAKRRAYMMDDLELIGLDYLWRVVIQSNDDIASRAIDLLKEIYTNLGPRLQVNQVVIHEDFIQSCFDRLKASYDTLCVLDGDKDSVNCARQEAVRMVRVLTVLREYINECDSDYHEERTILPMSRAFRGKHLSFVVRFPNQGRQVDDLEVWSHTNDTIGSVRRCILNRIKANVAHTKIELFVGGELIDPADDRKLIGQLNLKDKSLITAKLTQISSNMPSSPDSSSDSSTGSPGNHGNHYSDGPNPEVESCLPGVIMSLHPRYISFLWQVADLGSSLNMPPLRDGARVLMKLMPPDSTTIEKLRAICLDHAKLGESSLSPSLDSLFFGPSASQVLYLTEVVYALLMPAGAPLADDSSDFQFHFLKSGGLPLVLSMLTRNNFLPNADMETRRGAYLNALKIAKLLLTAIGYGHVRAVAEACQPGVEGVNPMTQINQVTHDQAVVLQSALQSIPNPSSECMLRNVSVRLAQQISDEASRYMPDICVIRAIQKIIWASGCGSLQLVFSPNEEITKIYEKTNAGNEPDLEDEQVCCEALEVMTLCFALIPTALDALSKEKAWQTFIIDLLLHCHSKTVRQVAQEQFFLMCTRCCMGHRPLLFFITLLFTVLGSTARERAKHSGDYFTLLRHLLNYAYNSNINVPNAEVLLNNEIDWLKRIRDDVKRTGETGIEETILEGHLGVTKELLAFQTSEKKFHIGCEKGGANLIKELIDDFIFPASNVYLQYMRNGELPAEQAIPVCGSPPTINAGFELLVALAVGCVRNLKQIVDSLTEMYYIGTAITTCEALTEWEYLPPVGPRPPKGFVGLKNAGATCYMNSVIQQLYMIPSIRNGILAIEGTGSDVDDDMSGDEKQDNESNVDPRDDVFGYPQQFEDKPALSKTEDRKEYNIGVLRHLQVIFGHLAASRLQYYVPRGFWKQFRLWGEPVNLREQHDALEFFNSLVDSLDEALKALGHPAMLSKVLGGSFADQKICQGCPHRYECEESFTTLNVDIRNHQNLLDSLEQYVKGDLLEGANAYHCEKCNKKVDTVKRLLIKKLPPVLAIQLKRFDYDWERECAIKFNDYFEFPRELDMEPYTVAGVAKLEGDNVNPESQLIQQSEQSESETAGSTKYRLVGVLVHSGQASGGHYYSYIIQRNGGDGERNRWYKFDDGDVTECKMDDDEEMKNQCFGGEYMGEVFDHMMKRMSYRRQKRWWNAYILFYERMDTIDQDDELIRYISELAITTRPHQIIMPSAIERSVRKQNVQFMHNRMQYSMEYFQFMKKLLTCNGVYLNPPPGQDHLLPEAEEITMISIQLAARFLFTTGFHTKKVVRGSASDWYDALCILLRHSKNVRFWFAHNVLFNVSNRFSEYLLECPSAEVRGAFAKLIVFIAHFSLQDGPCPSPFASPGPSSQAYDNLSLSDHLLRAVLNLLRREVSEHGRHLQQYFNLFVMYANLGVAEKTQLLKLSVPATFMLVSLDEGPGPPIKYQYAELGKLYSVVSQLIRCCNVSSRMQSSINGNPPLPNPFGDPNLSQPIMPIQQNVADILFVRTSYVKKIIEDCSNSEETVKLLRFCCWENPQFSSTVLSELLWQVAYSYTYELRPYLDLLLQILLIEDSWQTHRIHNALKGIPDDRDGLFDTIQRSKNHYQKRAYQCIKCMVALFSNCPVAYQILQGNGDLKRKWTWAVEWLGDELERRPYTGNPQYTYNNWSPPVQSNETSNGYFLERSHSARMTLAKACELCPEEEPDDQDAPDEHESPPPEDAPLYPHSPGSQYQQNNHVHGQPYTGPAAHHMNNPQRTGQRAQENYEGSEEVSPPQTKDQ
- assay-method-text: Inhibition of recombinant His6-tagged USP9x catalytic domain (unknown origin) assessed as association constant using Ub-AMC as substrate by fluorescence assay
measured-property: K

>>> measured("C=CC(=O)N1C/C(=C\\c2ccc([N+](=O)[O-])cc2)C(=O)/C(=C/c2ccc([N+](=O)[O-])cc2)C1")
"140 M⁻¹ s⁻¹"
>>> measured("N#CSc1cc(SC#N)c(N)nc1N")
"90 M⁻¹ s⁻¹"
>>> measured("NCc1ccc(OC(=O)Oc2ccc3ccccc3c2)cc1")
"49 M⁻¹ s⁻¹"
>>> measured("NCc1ccc(OC(=O)Oc2ccc(Br)cc2)cc1")
"6 M⁻¹ s⁻¹"
>>> measured("NCc1ccc(OC(=O)Oc2cccc3ccccc23)cc1")
"17 M⁻¹ s⁻¹"
>>> measured("NCc1ccc(OC(=O)Oc2ccc(Cl)cc2)cc1")
"18 M⁻¹ s⁻¹"
>>> measured("CCC[C@H](NC(=O)/C(C#N)=C/c1cccc(Br)n1)c1ccccc1")
"50 M⁻¹ s⁻¹"
